Cited source for all entries: ChEMBL document CHEMBL1155377

# Experiment: AUC in mouse plasma at 20 mg/kg, po
# Type: ADME, organism-based
# Set-up: dose 20 mg/kg, route oral
# Condition Details: plasma
So I've got a bunch of compounds here, and I need their AUC values.
The answer is to be given in µM·h; state only the numeric part.

input: AUC lookup needed for COC(=O)N1CCN(C2CCN(c3cc(C)c4nc(-c5c(NC[C@@H](O)c6cccc(Cl)c6)cc[nH]c5=O)[nH]c4c3)CC2)CC1 , thanks.
output: 11

input: AUC lookup needed for COC(=O)N1CCN(C2CCN(c3cc(C)c4nc(-c5c(NCCn6cc(Cl)cn6)cc[nH]c5=O)[nH]c4c3)CC2)CC1 , thanks.
output: 52

input: AUC lookup needed for COC(=O)N1CCN(C2CCN(c3cc(C)c4nc(-c5c(NCCc6ncn(C)c6Cl)cc[nH]c5=O)[nH]c4c3)CC2)CC1 , thanks.
output: 48
